# assay.details: in vitro
# cond: human, plasma
experimental.endpoint: fraction unbound

Exercise: // returns reported fraction unbound for input CCCCCCC#Cc1cncc(-c2nnc(SCc3ccc([N+](=O)[O-])o3)n2C2CC2)c1 [drawing 141]
Key: < 0.001

---

# assay.details: Human plasma protein binding
# cond: human, plasma
experimental.endpoint: fraction unbound

Exercise: Name the recorded fraction unbound for CCCCCCC#Cc1cncc(-c2nnc(SCc3cc([N+](=O)[O-])cc([N+](=O)[O-])c3)n2C)c1 [drawing 140] .
Key: < 0.001

---

# reported IC50; entries follow
# System: wild-type (WT) Mtb HN878 strain
# assay.details: MABA, Mtb HN878 strain
# Assay type: cell-based
# cond: Mycobacterium tuberculosis; read-out: IC50 ± S.D. (μM) HN878
Write the number in µM without appending the unit.

Some solved cases for reference:
| compound | IC50 [µM] |
| --- | --- |
| CCCCCCC#Cc1cncc(-c2nnc(SCc3ccc([N+](=O)[O-])cc3)n2C)c1 [drawing 94] | 1.3 |
| CCCCCCC#Cc1cncc(-c2nnc(SCc3ccc(Cl)cc3)n2C)c1 [drawing 92] | 0.85 |
| CCCCCCC#Cc1cncc(-c2nnc(SCc3ccc(C#N)cc3)n2C)c1 [drawing 93] | 2.3 |
| CCCCCCC#Cc1cncc(-c2nnc(SCc3cc([N+](=O)[O-])cc([N+](=O)[O-])c3)n2C)c1 [drawing 95] | 0.061 |

Exercise: Using the record for NNC(=O)c1ccncc1 [INH, isoniazid, reference compound] , report its IC50.
Key: 0.12
